Recorded IC50 by entry
# Test system: MDA-MB-231/breast cancer cells
# ASSAY_TEXT: MTT-cell proliferation assay
# Assay type: cell-based, human
# REPORTED_CONDITIONS: 48 h drug exposure, mean of three experiments ± SEM
Just the number in µM, nothing appended.

Before answering, review these 2 worked examples.
Q: Would you mind telling me what IC50 value was observed for CCCc1ccc(-c2nn(-c3ccccc3)cc2C=NNC(=O)c2cc3ccccc3[nH]2)cc1 ?
A: 12.7

Q: Repeat for the following compound: CC(C)Cc1ccc(-c2nn(-c3ccccc3)cc2C=NNC(=O)c2cc3ccccc3[nH]2)cc1
A: 31.5

Now examine the next entry.
Q: Would you mind telling me what IC50 value was observed for Cc1nn(-c2ccc([N+](=O)[O-])c([N+](=O)[O-])c2)c(Cl)c1C=NNC(=O)c1cc2ccccc2[nH]1 ?
A: 21.6

====

Recorded melting point by entry

Before answering, review these 2 worked examples.
Q: Would you mind telling me what melting point value was observed for Oc1ccc(NCc2nc3ccccc3[nH]2)cc1 ?
A: 139 to 141 °C

Q: Repeat for the following molecule: CN(C)c1ccc(C=NNC(=O)c2cc3ccccc3[nH]2)cc1
A: 90 to 92 °C

Now examine the next entry.
Q: Would you mind telling me what melting point value was observed for O=C(NN=Cc1cccnc1)c1cc2ccccc2[nH]1 ?
A: 252 to 254 °C

====

Recorded melting point by entry

Before answering, review these 5 worked examples.
Q: Would you mind telling me what melting point value was observed for Cc1nn(-c2ccc([N+](=O)[O-])c([N+](=O)[O-])c2)c(Cl)c1C=NNC(=O)c1cc2ccccc2[nH]1 [Compound 8f] ?
A: 204 to 206 °C

Q: Repeat for the following compound: Cc1cccc(C)c1NCc1nc2ccccc2[nH]1 [Compound 3b]
A: 159 to 161 °C

Q: Repeat for the following compound: CCc1ccc(-c2nn(-c3ccccc3)cc2C=NNC(=O)c2cc3ccccc3[nH]2)cc1 [Compound 8a]
A: 254 to 256 °C

Q: Repeat for the following compound: COc1ccc(C=NNC(=O)c2cc3ccccc3[nH]2)cc1 [Compound 7b]
A: 104 to 106 °C

Q: Repeat for the following compound: Cc1cccc(NCc2nc3ccccc3[nH]2)c1 [Compound 3a]
A: 139 to 141 °C

More entries:
Q: Would you mind telling me what melting point value was observed for CC(C)c1ccc(-c2nn(-c3ccccc3)cc2C=NNC(=O)c2cc3ccccc3[nH]2)cc1 [Compound 8c] ?
A: 219 to 221 °C

Q: Repeat for the following compound: Brc1cccc(NCc2nc3ccccc3[nH]2)c1 [Compound 3c]
A: 139 to 141 °C

Q: Repeat for the following compound: O=C(NN=Cc1ccccc1)c1cc2ccccc2[nH]1 [Compound 7a]
A: 111 to 113 °C

Q: Repeat for the following compound: CC(C)Cc1ccc(-c2nn(-c3ccccc3)cc2C=NNC(=O)c2cc3ccccc3[nH]2)cc1 [Compound 8d]
A: 229 to 231 °C
